- method-summary: Antioxidant activity assessed as superoxide anion radical scavenging activity at 40 uM measured as absorbance (t > infinity) recorded every min for 7 mins by nitroblue tetrazolium assay (reference value: 1.9 +/- 0.01)
- Format: physicochemical
quantity-measured: Activity

COc1cc(/C=C/C(=O)O[C@H]2CC[C@@]3(C)C(=CC[C@H]4[C@@H]5CC[C@H]([C@H](C)CCCC(C)C)[C@@]5(C)CC[C@@H]43)C2)ccc1O | 1.76
COc1cc(/C=C/C(=O)O)ccc1O [FERULATE] | 1.27
COc1cc(/C=C/C(=O)O[C@H]2CC[C@@]3(C)[C@@H](CC[C@@H]4[C@@H]3CC[C@]3(C)[C@@H]([C@H](C)CC[C@@H](C)C(C)C)CC[C@@H]43)C2)ccc1O | 1.89
COC(=O)/C=C/c1ccc(O)c(OC)c1 | 1.9
CC[C@H](CC[C@@H](C)[C@H]1CC[C@H]2[C@@H]3CC=C4C[C@@H](OC(=O)/C=C/c5ccc(O)c(OC)c5)CC[C@]4(C)[C@H]3CC[C@]12C)C(C)C | 1.64
CCOC(=O)/C=C/c1ccc(O)c(OC)c1 [ETHYL FERULATE] | 1.9
COc1cc(/C=C/C(=O)O[C@H]2CC[C@@]3(C)C(=CC[C@H]4[C@@H]5CC[C@H]([C@H](C)CC[C@@H](C)C(C)C)[C@@]5(C)CC[C@@H]43)C2)ccc1O | 1.65
CC[C@H](CC[C@@H](C)[C@H]1CC[C@H]2[C@@H]3CC[C@H]4C[C@@H](OC(=O)/C=C/c5ccc(O)c(OC)c5)CC[C@]4(C)[C@H]3CC[C@]12C)C(C)C | 1.85
CC[C@H](/C=C/[C@@H](C)[C@H]1CC[C@H]2[C@@H]3CC=C4C[C@@H](OC(=O)/C=C/c5ccc(O)c(OC)c5)CC[C@]4(C)[C@H]3CC[C@]12C)C(C)C | 1.68

* * *

- method-summary: Antioxidant activity assessed as DPPH radical scavenging activity at 1.67 uM measured as absorbance (t -> infinity) after 10 secs by UV-visible spectrophotometry
- Assay type: physicochemical
- experimental-conditions: 10 s
quantity-measured: Activity

COc1cc(/C=C/C(=O)O)ccc1O [FERULATE] | 1.232
CC[C@H](CC[C@@H](C)[C@H]1CC[C@H]2[C@@H]3CC[C@H]4C[C@@H](OC(=O)/C=C/c5ccc(O)c(OC)c5)CC[C@]4(C)[C@H]3CC[C@]12C)C(C)C | 1.156
COc1cc(/C=C/C(=O)O[C@H]2CC[C@@]3(C)[C@@H](CC[C@@H]4[C@@H]3CC[C@]3(C)[C@@H]([C@H](C)CC[C@@H](C)C(C)C)CC[C@@H]43)C2)ccc1O | 1.198
COc1cc(/C=C/C(=O)O[C@H]2CC[C@@]3(C)C(=CC[C@H]4[C@@H]5CC[C@H]([C@H](C)CCCC(C)C)[C@@]5(C)CC[C@@H]43)C2)ccc1O | 1.245
CCOC(=O)/C=C/c1ccc(O)c(OC)c1 [ETHYL FERULATE] | 0.992
CC[C@H](/C=C/[C@@H](C)[C@H]1CC[C@H]2[C@@H]3CC=C4C[C@@H](OC(=O)/C=C/c5ccc(O)c(OC)c5)CC[C@]4(C)[C@H]3CC[C@]12C)C(C)C | 1.144
